tested on: HL-60(TB) leukemia; experiment: NCI tumour cell line growth inhibition, 48 h
Reported TGI values for a set of molecules
measure: TGI

molecule	measure	result_value
N[C@@H]1CCCC[C@@H]1N.O=C([O-])CN(CP(=O)([O-])[O-])CP(=O)([O-])[O-].[Pt+2]	TGI	> 100 µM
CCOC(=O)N[C@H]1CCc2c(Br)c(OC)c(OC)c(OC)c2-c2ccc(SC)c(=O)cc21	TGI	0.0131 µM
COC(=O)C1(C2CC/C(C)=C/CC/C(C)=C/CC[C@@]3(C)O[C@@H]3C2)CC1 (stereo partly specified)	TGI	> 83.5 µM
O=C(O)Cn1c(=O)[nH]c(=O)c2[nH]cnc21	TGI	> 100 µM
Cc1cccc(C)c1NC(=O)CCC(=O)NC(N)=S	TGI	> 100 µM
COc1cc(NCC2COc3c(ccc(OC)c3OC)C2=O)c([N+](=O)[O-])cc1OC (stereo unspecified)	TGI	> 100 µM
C[C@@H](Oc1ccc2[nH]nc(/C=C/c3cnn(CCO)c3)c2c1)c1c(Cl)cncc1Cl	TGI	3.21 µM
N#Cc1c(N)nc2c(c1-c1ccc(Br)cc1)CSc1ccccc1-2	TGI	98.5 µM
CC1C=C[C@H](Sc2ccccc2)CC[C@@]1(C)O (stereo partly specified)	TGI	> 100 µM
O=C(NCCNCCNC(=O)C(F)(F)F)C(F)(F)F	TGI	> 100 µM
NC(Cc1ccnnc1)C(=O)O (stereo unspecified)	TGI	> 100 µM
CCCCCCCCCCCCCCCC(=O)OC(COC(C)=O)CO[P+](=O)O (stereo unspecified)	TGI	> 100 µM
COc1ccc([C@]23CCN(S(=O)(=O)c4ccc(C)cc4)[C@H]2[C@H](CO)C2(CC3)OCC(C)(C)CO2)cc1OC	TGI	> 100 µM
Nc1ccc(-c2nc3cc(F)ccc3s2)cc1CO	TGI	> 100 µM
COC(=O)CCc1cccnc1/C=N/O	TGI	> 100 µM
CC(=O)NC(CCCNC(=O)NCCCl)C(=O)NCc1ccccc1 (stereo unspecified)	TGI	> 100 µM
CCSC1=N/C(=C/c2ccccc2O)C(=O)N1	TGI	> 100 µM
COC1CC(CC2CCC(C)C(C(C)C(=O)O)O2)OC2(OC(C)(C3CCC(C)(C4OC(C5OC(O)(CO)C(C)CC5C)CC4C)O3)CC2C)C1C (stereo unspecified)	TGI	1.1 µM
CC(CN1CCN(CC(C)Nc2ccnc3cc(Cl)ccc23)CC1)Nc1ccnc2cc(Cl)ccc12 (stereo unspecified)	TGI	19.3 µM
NC(=S)N/N=c1\cc(C(=O)Nc2ccc([N+](=O)[O-])cc2[N+](=O)[O-])oc2ccccc12	TGI	> 100 µM
O=c1c2ccccc2nc(-c2ccccc2)n1O	TGI	> 100 µM
Nc1nc(NCC2(CO)CCC2)cc(=O)[nH]1	TGI	> 100 µM
COC(=O)NC(=O)c1cn(CCCOC(=O)CCCCCCCCC(=O)OCCCn2cc(C(=O)NC(=O)OC)c(=O)[nH]c2=O)c(=O)[nH]c1=O	TGI	> 100 µM
O[C@H]1[C@H]2[C@H](O)C[C@H](CCOCc3ccccc3)CN2C[C@H]1O	TGI	> 100 µM
O=S(=O)(O)c1cc(N=[N+]([O-])c2cc(S(=O)(=O)O)c3ccccc3c2)cc2ccccc12	TGI	> 100 µM
Cc1ccc(CC(Cc2ccc(C)cc2C(=O)O)C(=O)O)cc1 (stereo unspecified)	TGI	> 100 µM
CC(=O)/C=C/C1=C(c2cccs2)c2ccccc2CC1	TGI	> 100 µM
COC(=O)c1ccccc1C1CN=NC12Cc1cc(C)c(C)cc1C2=O (stereo unspecified)	TGI	46.9 µM
CC(=O)[C-](C(C)=O)c1ccccc1.CC(=O)[C-](C(C)=O)c1ccccc1.CC[O-].CC[O-].[Ti+4]	TGI	> 100 µM
OCC#Cc1ccccc1C#Cc1ccc(C#Cc2ccccc2C#CCO)s1	TGI	> 100 µM
COC1C(O)C(C)OC(OC2CC3CCC4C(CCC5(C)C(C6=CC(=O)OC6)CCC45O)C3(O)C(OC(C)=O)C2)C1O (stereo unspecified)	TGI	4.23 µM
